Hello, the source for this data is the supplement of paper PMC9112550, in case you need it.

Tested on: Escherichia coli TOP10;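 note: peptides expressed intracellularly from a pBAD plasmid library in pooled LB shake-flask culture, induced with 0.3% L-arabinose, DNA abundance read by NGS, three biological replicates, DESeq2 with apeglm shrinkage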
Assay: shrunken log2 fold change of peptide-encoding DNA abundance (4.5 h post-induction vs induction); higher = less antimicrobial activity (less host growth inhibition)
Conditions: time post-induction: 4.5 h; library: site-saturation at positions 5, 18, 19, 20
metric: shrunken log2 fold change

- seq: "RRIRGRPPRLPRPRPRPEYGPRP"
  tested-target: "Escherichia coli TOP10"
  shrunken log2 fold change: -0.0112
- seq: "RRIRLRPPRLPRPRPRPTVQPRP"
  tested-target: "Escherichia coli TOP10"
  shrunken log2 fold change: -0.191
- seq: "RRIRQRPPRLPRPRPRPWCKPRP"
  tested-target: "Escherichia coli TOP10"
  shrunken log2 fold change: -0.0323
- seq: "RRIRYRPPRLPRPRPRPQRVPRP"
  tested-target: "Escherichia coli TOP10"
  shrunken log2 fold change: -0.393
- seq: "RRIRSRPPRLPRPRPRPNTCPRP"
  tested-target: "Escherichia coli TOP10"
  shrunken log2 fold change: -0.808

Give recorded shrunken log2 fold change with Escherichia coli TOP10 for the following sequence: RRIRNRPPRLPRPRPRPDQQPRP -0.0806

Lookup RRIRYRPPRLPRPRPRPFSKPRP -0.107

Ok, now RRIRERPPRLPRPRPRPPRKPRP 0.387

For RRIRRRPPRLPRPRPRPLHNPRP then? 0.188

Same read-out for RRIRARPPRLPRPRPRPFLSPRP ? -0.107

Same for RRIRRRPPRLPRPRPRPVCCPRP 0.158
